Catalogue of pKd values
system: Tyrosine-protein kinase JAK1 (Homo sapiens, UniProt P23458)
Sequence (P23458 whole entry): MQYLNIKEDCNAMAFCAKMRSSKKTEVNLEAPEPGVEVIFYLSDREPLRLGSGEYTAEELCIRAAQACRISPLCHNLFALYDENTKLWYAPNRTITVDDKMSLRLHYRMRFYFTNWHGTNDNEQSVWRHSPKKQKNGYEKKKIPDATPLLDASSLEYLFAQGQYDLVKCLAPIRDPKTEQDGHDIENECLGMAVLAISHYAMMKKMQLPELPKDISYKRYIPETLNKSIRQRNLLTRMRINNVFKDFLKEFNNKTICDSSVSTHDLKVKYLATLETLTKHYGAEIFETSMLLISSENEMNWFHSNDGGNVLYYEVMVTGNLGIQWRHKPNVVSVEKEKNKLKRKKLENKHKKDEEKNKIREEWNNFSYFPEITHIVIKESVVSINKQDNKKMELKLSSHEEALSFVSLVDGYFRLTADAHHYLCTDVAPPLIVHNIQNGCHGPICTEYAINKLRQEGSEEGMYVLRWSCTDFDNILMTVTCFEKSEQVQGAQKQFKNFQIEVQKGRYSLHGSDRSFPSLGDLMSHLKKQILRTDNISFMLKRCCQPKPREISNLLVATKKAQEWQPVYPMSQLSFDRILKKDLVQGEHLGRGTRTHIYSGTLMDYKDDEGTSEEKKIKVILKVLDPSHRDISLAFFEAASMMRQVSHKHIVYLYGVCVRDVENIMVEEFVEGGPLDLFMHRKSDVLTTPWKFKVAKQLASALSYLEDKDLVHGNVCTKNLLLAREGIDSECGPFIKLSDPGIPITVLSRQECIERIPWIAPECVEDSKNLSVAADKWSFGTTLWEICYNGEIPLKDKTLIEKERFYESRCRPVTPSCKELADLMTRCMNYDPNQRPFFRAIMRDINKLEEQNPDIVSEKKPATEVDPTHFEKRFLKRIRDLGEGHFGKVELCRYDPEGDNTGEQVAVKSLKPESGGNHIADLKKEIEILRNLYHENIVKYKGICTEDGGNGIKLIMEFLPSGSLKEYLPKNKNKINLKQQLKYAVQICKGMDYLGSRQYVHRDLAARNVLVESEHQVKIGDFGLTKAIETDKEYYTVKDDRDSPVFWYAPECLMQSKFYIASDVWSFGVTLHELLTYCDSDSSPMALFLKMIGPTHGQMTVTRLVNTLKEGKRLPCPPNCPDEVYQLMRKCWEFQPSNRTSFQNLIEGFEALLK
test: Binding affinity to JAK1 JH2 (unknown origin)
pKd: −log10 of the molar value.
measurement kind: pKd

- CNc1cc2nn3c(cnc13)C(=O)N[C@H](C)COCc1ccc(OC)c(c1)N2: 6.37
- CNc1cc(Nc2cccnc2OC)nc2c(C(=O)NCC3(CO)CC3)cnn12: 5.30
- CNc1cc(Nc2cccn(-c3cnc(C(C)(C)O)cn3)c2=O)nc2c(C(=O)NC3CCC3)cnn12: 5.30

====

The following molecules are shown together with reported pIC50 values.
test: Inhibition of IL-2 induced STAT phosphorylation in HEK293 cells by Western blotting analysis
Type: cell-based
condition info: Homo sapiens
pIC50: −log10 of the molar value.
measurement kind: pIC50

* COc1cccc(-n2[nH]c(=O)c3cnc(Nc4cc(C)nc(C)n4)cc32)c1F | < 4.05
* N#Cc1ccc(-n2[nH]c(=O)c3cnc(Nc4ccc(F)cn4)cc32)cc1Cl | < 4.05

====

system: UniProtKB P29597
test: Inhibition of TYK2 in HEK-Blue IL-23 cells assessed as reduction in SEAP reporter gene expression by Quanti-blue assay
Assay type: cell-based
pIC50: −log10 of the molar value.
measurement kind: pIC50

* [2H]C([2H])([2H])NC(=O)c1nnc(NC(=O)C2CC2)cc1Nc1ncc(C2CC2)cc1S(C)(=O)=O | > 9.00
* [2H]C([2H])([2H])NC(=O)c1nnc(NC(=O)[C@H]2CC23CC3)cc1Nc1ncc(OCCOC)cc1S(C)(=O)=O | > 9.00

====

system: UniProt:P29597
test: Inhibition of TYK2 JH2 (561 to 860 residues) (unknown origin) by HTRF assay
pIC50: −log10 of the molar value.
measurement kind: pIC50

• COCCOc1cc(Nc2cc(NC(C)=O)ncc2-c2ccccn2)nc(S(C)(=O)=O)c1 = 10.74

====

system: Non-receptor tyrosine-protein kinase TYK2 (Homo sapiens, UniProt P29597)
Sequence (P29597 whole entry): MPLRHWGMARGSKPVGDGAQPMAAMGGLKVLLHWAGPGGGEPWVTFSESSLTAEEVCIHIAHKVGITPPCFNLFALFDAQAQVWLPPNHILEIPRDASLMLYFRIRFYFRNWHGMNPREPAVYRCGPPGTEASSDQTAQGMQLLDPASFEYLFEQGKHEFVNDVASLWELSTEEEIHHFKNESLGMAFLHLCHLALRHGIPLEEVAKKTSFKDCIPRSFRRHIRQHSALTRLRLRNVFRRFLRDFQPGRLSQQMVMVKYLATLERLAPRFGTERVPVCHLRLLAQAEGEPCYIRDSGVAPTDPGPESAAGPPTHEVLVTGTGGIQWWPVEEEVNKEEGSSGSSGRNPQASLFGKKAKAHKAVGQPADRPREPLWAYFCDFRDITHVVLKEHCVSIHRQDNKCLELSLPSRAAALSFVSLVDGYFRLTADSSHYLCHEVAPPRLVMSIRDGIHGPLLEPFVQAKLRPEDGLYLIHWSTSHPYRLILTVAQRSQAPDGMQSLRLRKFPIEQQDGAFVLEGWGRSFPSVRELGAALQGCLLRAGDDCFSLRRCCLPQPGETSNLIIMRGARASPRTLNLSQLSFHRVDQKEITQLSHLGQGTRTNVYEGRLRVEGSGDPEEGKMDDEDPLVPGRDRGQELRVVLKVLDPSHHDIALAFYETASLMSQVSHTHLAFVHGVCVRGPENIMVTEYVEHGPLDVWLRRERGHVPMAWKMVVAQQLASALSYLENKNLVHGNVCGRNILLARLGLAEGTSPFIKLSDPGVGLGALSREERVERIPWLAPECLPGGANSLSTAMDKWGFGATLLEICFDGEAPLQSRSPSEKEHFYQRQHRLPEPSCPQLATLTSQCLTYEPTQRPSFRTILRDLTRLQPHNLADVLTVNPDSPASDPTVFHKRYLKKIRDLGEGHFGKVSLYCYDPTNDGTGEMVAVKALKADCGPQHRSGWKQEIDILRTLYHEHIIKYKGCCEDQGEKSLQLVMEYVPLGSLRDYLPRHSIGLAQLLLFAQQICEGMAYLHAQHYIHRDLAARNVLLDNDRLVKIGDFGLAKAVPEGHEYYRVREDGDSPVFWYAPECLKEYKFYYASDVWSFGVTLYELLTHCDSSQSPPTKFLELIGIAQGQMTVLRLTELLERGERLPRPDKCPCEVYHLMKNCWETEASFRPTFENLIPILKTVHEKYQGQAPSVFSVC
test: Inhibition of TYK2 signal transduction pathway in human TF-1 cells assessed as reduction in GM-CSF induced p-STAT5 level
Type: cell-based
pIC50: −log10 of the molar value.
measurement kind: pIC50

• COc1cc(Nc2cc(NC(C)=O)ncc2-c2ccc3c(n2)OCC(C)(C)O3)nc(S(C)(=O)=O)c1 = 5.74
• COc1cc(Nc2cc(NC(C)=O)ncc2-c2ccc(C(C)(C)O)cn2)nc(S(C)(=O)=O)c1 = < 5.00
• COCCOc1cc(Nc2cc(NC(C)=O)ncc2-c2ccccn2)nc(S(C)(=O)=O)c1 = < 5.00
• COc1cc(Nc2cc(NC(C)=O)ncc2-c2ccc(F)cn2)nc(S(C)(=O)=O)c1 = < 5.00

====

Item-by-item account of Kd
system: Non-receptor tyrosine-protein kinase TYK2 (Homo sapiens, UniProt P29597)
test: Binding affinity to TYK2 JH2 (unknown origin)
measurement kind: Kd

* [2H]C([2H])([2H])n1nnc2c3cc(cc21)CO[C@@H]1CCC[C@H]1NC(=O)c1cnc2c(NC)cc(nn12)N3 | 0.002 nM
* [2H]C([2H])([2H])NC(=O)c1nnc2cc1Nc1cc(cc(-c3ccn(C)n3)c1OC)CCOCc1cccc(n1)N2 | < 1 nM
* CNC(=O)c1cnc2cc1Nc1cc(cc(-c3ccn(C)n3)c1OC)CCOCc1nc(ccc1C)N2 | < 1 nM
* [2H]C([2H])([2H])CC(=O)c1cnc(Nc2cccc(C#N)n2)cc1Nc1cccc(-c2ncn(C([2H])([2H])[2H])n2)c1OC | ≤ 10 nM
* [2H]C([2H])([2H])CC(=O)c1cnc(NC(=O)C2CC2)cc1Nc1nccc(-c2ncn(C([2H])([2H])[2H])n2)c1OC | ≤ 10 nM
* CNc1cc2nn3c(cnc13)C(=O)N[C@H](C)COCc1ccc(OC)c(c1)N2 | 0.002 nM
* [2H]C([2H])([2H])CC(=O)c1cnc(Nc2cccc(C#N)n2)cc1Nc1nccc(-c2ncn(C([2H])([2H])[2H])n2)c1OC | ≤ 10 nM

====

system: Tyrosine-protein kinase JAK2 (Homo sapiens)
test: Binding affinity to JAK2 JH1 (unknown origin)
pKd: −log10 of the molar value.
measurement kind: pKd

* [2H]C([2H])([2H])CC(=O)c1cnc(NC(=O)C2CC2)cc1Nc1nccc(-c2ncn(C([2H])([2H])[2H])n2)c1OC | ≥ 6.00
* [2H]C([2H])([2H])CC(=O)c1cnc(Nc2cccc(C#N)n2)cc1Nc1nccc(-c2ncn(C([2H])([2H])[2H])n2)c1OC | < 5.00
* [2H]C([2H])([2H])CC(=O)c1cnc(Nc2cccc(C#N)n2)cc1Nc1cccc(-c2ncn(C([2H])([2H])[2H])n2)c1OC | < 5.00
* CNc1cc2nn3c(cnc13)C(=O)N[C@H](C)COCc1ccc(OC)c(c1)N2 | 5.14

====

test: Cmax in C57BL/6 mouse at 10 mg/kg, po by LC/MS-MS analysis
Assay type: ADME, organism-based
Design: dose 10 mg/kg, route po
condition info: in vivo
This listing pairs compounds with measured Cmax.
measurement kind: Cmax (ng/mL)

* CO[C@@]1(c2cc(C)cc(-n3cc(C4CCN(C)CC4)c4cnc(NC(N)=O)cc43)n2)CCOC1 | 2740
* CO[C@@]1(c2cc(C)cc(-n3cc(C4CC4)c4cnc(NC(C)=O)cc43)n2)CCOC1 | 2060

====

Listed below: pIC50 values for each entry.
system: JAK2/TYK2 (Homo sapiens, UniProt O60674+P29597)
Sequence (P29597 whole entry, one chain of several): as the sequence (P29597 whole entry) above
test: Inhibition of JAK2/TYK2 signal transduction pathway in human PBMC cells assessed as reduction in GM-CSF induced p-STAT5 level incubated for 20 mins
Type: cell-based
pIC50: −log10 of the molar value.
measurement kind: pIC50

* CNc1cc(Nc2cccnc2OC)nc2c(C(=O)NCC3(CO)CC3)cnn12 | > 6.30
* CNc1cc(Nc2cccn(-c3cnc(C(C)(C)O)cn3)c2=O)nc2c(C(=O)NC3CCC3)cnn12 | > 6.30

====

system: JAK2/TYK2 (Homo sapiens, UniProt O60674+P29597)
test: Inhibition of JAK2/TYK2 signal transduction pathway in human PBMC cells assessed as IL-12 induced p-STAT4 level incubated for 30 mins
Format: cell-based
# Lookup of reported IC50 keyed by entry
measurement kind: IC50

- CNc1cc(Nc2cccnc2OC)nc2c(C(=O)NCC3(CO)CC3)cnn12: < 0.5 µM
- CNc1cc(Nc2cccn(-c3cnc(C(C)(C)O)cn3)c2=O)nc2c(C(=O)NC3CCC3)cnn12: < 0.5 µM

====

system: Tyrosine-protein kinase JAK2 (Homo sapiens, UniProt O60674)
Sequence (O60674 whole entry): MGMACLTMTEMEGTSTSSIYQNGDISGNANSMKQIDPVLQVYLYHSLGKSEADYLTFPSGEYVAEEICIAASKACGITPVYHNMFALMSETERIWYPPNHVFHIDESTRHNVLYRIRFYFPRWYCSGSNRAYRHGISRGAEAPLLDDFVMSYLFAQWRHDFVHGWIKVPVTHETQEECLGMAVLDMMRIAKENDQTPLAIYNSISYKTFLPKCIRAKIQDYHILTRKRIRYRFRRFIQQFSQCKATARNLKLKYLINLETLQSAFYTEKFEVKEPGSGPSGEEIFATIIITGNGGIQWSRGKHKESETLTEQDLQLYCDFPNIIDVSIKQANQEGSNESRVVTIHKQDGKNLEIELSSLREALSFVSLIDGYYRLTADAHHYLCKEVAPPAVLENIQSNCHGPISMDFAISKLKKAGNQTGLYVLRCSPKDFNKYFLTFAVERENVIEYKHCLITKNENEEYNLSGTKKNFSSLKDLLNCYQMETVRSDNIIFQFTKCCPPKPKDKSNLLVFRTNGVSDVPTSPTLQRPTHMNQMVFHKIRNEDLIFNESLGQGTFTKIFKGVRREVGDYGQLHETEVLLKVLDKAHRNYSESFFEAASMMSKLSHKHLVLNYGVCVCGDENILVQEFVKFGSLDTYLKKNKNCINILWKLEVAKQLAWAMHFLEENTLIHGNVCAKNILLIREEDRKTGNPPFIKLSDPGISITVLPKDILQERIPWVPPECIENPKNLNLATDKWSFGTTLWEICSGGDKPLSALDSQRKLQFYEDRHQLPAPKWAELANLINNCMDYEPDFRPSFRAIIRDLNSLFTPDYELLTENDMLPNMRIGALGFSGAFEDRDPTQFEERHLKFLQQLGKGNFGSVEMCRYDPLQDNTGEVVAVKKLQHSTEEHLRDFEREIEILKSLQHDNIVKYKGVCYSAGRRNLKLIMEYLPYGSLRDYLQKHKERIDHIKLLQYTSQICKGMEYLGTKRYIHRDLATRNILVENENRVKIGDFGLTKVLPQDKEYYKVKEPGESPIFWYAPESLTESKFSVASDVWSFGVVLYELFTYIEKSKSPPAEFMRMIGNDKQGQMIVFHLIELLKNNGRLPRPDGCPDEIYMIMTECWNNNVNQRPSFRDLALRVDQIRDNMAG
test: Inhibition of JAK2 in human TF-1 cells assessed as reduction of STAT5 phosphorylation by ELISA assay
measurement kind: EC50

* [2H]C([2H])([2H])Nc1cc(Nc2cc(Cl)cn(-c3ccccn3)c2=O)nn2c(C(=O)N[C@@H]3C[C@@H]3F)cnc12 | > 10 µM

====

As shown below, each of these compounds has a reported IC50 value.
system: JAK2/TYK2 (Homo sapiens, UniProt O60674+P29597)
test: Inhibition of JAK2/TYK2 signal transduction pathway in human PBMC cells assessed as IL-12 induced p-STAT4 level by AlphaLISA assay
Type: cell-based
measurement kind: IC50

- CO[C@@]1(c2cc(C)cc(-n3nc(-c4cnn(C)c4)c4cnc(NC(N)=O)cc43)n2)CCOC1: 9 nM
- CO[C@@]1(c2cc(C)cc(-c3cc(C)n4cnc(NC(N)=O)cc34)n2)CCOC1: 8 nM

====

system: Tyrosine-protein kinase JAK3 (Homo sapiens, UniProt P52333)
Sequence (P52333 whole entry): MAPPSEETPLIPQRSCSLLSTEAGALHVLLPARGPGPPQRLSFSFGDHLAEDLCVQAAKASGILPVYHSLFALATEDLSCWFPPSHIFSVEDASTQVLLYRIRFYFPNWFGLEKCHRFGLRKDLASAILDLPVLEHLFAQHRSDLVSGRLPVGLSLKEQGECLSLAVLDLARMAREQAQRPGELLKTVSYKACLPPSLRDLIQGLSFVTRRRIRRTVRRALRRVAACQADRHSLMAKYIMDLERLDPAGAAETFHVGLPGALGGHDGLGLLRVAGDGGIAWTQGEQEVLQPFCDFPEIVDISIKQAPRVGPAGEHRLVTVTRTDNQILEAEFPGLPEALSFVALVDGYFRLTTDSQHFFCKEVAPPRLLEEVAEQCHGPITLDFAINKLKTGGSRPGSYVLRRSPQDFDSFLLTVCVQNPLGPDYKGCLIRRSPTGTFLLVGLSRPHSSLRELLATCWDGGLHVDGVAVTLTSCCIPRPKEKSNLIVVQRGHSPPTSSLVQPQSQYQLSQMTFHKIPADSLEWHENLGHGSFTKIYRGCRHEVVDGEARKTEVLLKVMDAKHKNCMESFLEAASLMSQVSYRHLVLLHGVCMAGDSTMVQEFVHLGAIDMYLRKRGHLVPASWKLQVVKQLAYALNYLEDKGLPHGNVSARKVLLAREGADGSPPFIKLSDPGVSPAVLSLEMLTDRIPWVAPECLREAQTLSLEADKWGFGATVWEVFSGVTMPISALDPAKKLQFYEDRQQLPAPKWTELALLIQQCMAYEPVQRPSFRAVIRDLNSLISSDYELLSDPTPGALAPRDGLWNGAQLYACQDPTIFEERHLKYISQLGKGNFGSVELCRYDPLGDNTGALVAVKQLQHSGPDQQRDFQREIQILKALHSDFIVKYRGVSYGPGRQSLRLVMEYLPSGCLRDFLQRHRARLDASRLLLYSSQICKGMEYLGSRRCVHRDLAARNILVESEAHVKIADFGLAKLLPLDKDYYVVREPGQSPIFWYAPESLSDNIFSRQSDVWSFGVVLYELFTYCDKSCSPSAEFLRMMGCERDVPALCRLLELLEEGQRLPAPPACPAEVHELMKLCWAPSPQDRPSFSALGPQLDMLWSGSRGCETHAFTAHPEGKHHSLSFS
test: Inhibition of JAK3 (unknown origin)
measurement kind: IC50

* CNC(=O)c1cnc2cc1Nc1cc(cc(-c3ccn(C)n3)c1OC)CCOCc1nc(ccc1C)N2 | > 10 µM
* [2H]C([2H])([2H])NC(=O)c1nnc2cc1Nc1cc(cc(-c3ccn(C)n3)c1OC)CCOCc1cccc(n1)N2 | > 10 µM
* CO[C@@]1(c2cc(C)cc(-n3cc(C4CCN(C)CC4)c4cnc(NC(N)=O)cc43)n2)CCOC1 | > 10 µM

====

system: Tyrosine-protein kinase JAK1 (Homo sapiens)
test: Inhibition of JAK1 JH2 (unknown origin)
pIC50: −log10 of the molar value.
measurement kind: pIC50

• COCCOc1cc(Nc2cc(NC(C)=O)ncc2-c2ccccn2)nc(S(C)(=O)=O)c1 = 8.92

====

system: JAK2/TYK2 (Homo sapiens, UniProt O60674+P29597)
test: Inhibition of JAK2/TYK2 signal transduction pathway in human NK92 cells assessed as IL-12 induced STAT4 phosphorylation
Format: cell-based
pIC50: −log10 of the molar value.
measurement kind: pIC50

• COc1cc(Nc2cc(NC(C)=O)ncc2-c2ccc(F)cn2)nc(S(C)(=O)=O)c1 = 8.74
• COCCOc1cc(Nc2cc(NC(C)=O)ncc2-c2ccccn2)nc(S(C)(=O)=O)c1 = 8.92
• COc1cc(Nc2cc(NC(C)=O)ncc2-c2ccc(C(C)(C)O)cn2)nc(S(C)(=O)=O)c1 = 9.00
• COc1cc(Nc2cc(NC(C)=O)ncc2-c2ccc3c(n2)OCC(C)(C)O3)nc(S(C)(=O)=O)c1 = 10.28
